Assay: soluble on expression in E. coli; label from the status in PepcDB or PDB records
measured_parameter: soluble on expression in E. coli

- MVAQKAYVSTPTLIDYLSRSAIKLLDIHSILLKVREEAMGGEPNLLRQIDSTKKQLDEISHALILEYRKRQENERFLKQILLSISDQLFSLNNGFKETGRLFFQEIRMLQSQMQCFYEGKERQYLLSEQESSYSPSKIDEVIKQLQKAREKLIVESPHLFEKEC: not soluble
- MVHDTFMKMPEVRRRRQPTHVLVAGGNQGLGNMTAFLRAARTSTLFRYSVLCGANKQLYHEIASWQLPHIRPLPYINSPEEMNQLYDEADAVITKPGGVTISELLHKRIPIFTIDCLPGQERINWQYLRRNGLIYHLAEPGNGERKMIRLLTDDVEKNRFFRRVSDYFAGVEKTGLEHHHHHH: not soluble
- SLGEVPSPQELIEVADAAPNAASGVLKLYRAYREQAQRLSDLSDLLAREGHETALSSTRLPIDEVRHVFENRPAYFHAIDAAAEELHKQLSTGDDLASGLRAWLQKNHGIVVRTLPVHAMPNLRRRYDRHSMRLFLSERLSQPDQLREMAMETCLLALREEIGTELEALGLKGEEARRIARFELARYAAHALMMPYGAFLAAAQRAKYDLDVLRSRFNVSFEQAANRLVSLQRPTTAAIPFFLMEIDNAGNRFRLAGAGGFPRARFGGLCPRLNIHAAFAQPGQVLVESVEMPDGDAFLTVSRTLEGPQAGFGERVRRTAVLLGCDLGQAGETVYGPAASGAAPVAIGPSCRLCERQGCLSRAEAPLTRPLGLDEMVTGLSVFDFQ: soluble
- MGSDKIHHHHHHMPSPIDLHSHSTVSDGLLAPEALVAHAAEQGVKVLSLTDHDDTSGLAPAASAAAGHGMEFINGVEISVTWRRKTIHVVGLRVDPDHGPLREGLEKIRAGRHLRAENIAASLEKFGIKGSLEGAYAHARQGIIGRAHFARYLIDQGYASNMKAIFKRYLVKGKPGYVEHHWATLEEVVAWINGSGGVAVLAHPGRYDIGRSNMLLLLEEFRNLGGTAIEVVTGSHNADQFQEYAKLAHMFGLKSSMGSDYHGPGHGNIEMGRLPDLPRGCIPVWQDWPEIRSLNN: not soluble
- MVLEVNQAIVNESLQTEQVMEQLSSTVDVIVDNIEKYTNAARYGKGNNYALNNLRTAVQNQFPLVDWLLSTSLSQMIENAWQNGSLPTVTDEDGNVYLKAPLNVFTTPPKDTKGECCWLPFDIAACGGKAPINILCLKDCVDMLNHLLDRKLKVQSNDLIGFFKQAGQTYEEVRDFMNRESMAFYTANTIVNGQLDVTTPILKKFHGLMEILKRPEVFKMQGTNILAAFDSIGYRMDVLGGSFIFAAHPLTVASIKNAIRPNRYGILPDGWTINGESIFYKGAQVLPDKTVPVDVENGTGVIWQLSGESVGVFLGTTLRPAEDYIIRNQFTTTNDVNKGCATECDIYYNLGSVVTNNVARLAVITDVPLAAGINAYSLANLLDRVYVETLAP: not soluble
- MTYLETAAQFYSEVAQTPQVGLCCVQSTPLQLPGLKIPLPMQEMNYGCGTTVHPTELGKQPTVLYVGVGGGLEALQFAYFSRRPGAVIAVEPVAAMREAAARNLEMALTDNPWFDSSFVEIREGDAFNLPVADGSVDIVAQNCLFNIFEPEDLTRALKEAYRVLKPGGRLQMSDPIATSPVPAHLQQDERLRAMCLSGALTYEEYTQRIIDAGFGQIEIRARRPYRLLDSQTYNLETHLLLESLDSVSFKVPMPEDGACIFTGRTAIYAGCDAFFDDKAGHILQRGIPATVCDKTAAKLATVKPKEVIITDSTWHYNGGGCCLEHHHHHH: soluble
- MACCLSEEAREQKRINQEIEKQLQRDKRNARRELKLLLLGTGESGKSTFIKQMRIIHGQGYSEEDKRAHIRLVYQNVFMAIQSMIRAMDTLDIKFGNESEELQEKAAVVREVDFESVTSFEEPYVSYIKELWEDSGIQECYDRRREYQLTDSAKYYLSDLRRLAVPDYLPTEQDILRVRVPTTGIIEYPFDLEQIIFRMVDVGGQRSERRKWIHCFENVTSIMFLVALSEYDQVLVECDNENRMEESKALFRTIITYPWFTNSSVILFLNKKDLLEEKILYSHLADYFPEYDGPPRDPIAAREFILKMFVDLNPDADKIIYSHFTCATDTENIRFVFAAVKDTILQHNLKEYNLV: not soluble
- MKIKEVIVVEGKDDTAAIRRAVDADTIETNGAAVGADVIERIKLAKERRGVIIFTDPDFPGEKIRRTIAEQVPGCKHAFLPREAAKAKNGKGIGVEHASPDEIRRALANVYEEASDWKEEITFAELIEAGLIGGAMARRRRQRLGEELKIGYANGRQFHKRLQVFRISRDAFYAALAHVMQEEADDV: not soluble

Record MIKVDMTVDAKGLSCPMPIVRTKKAINELQPGQVLEVQATDKGSKADIKAWAESTGHQYLGTIEENGVLKHYIRKSAEHETRKETTFPHVVSNEELQEKLHDPDSFVLDVREPAEYAFGHIPGAVSIPLGELENRMAELPKDKTIYVVCRTGTRSDLAAQKLAEKGFDRVRNVIPGMSQWNGPLDSAQS , field soluble on expression in E. coli: soluble

Record MQKIALCITGASGVIYGIKLLQVLEELDFSVDLVISRNAKVVLKEEHSLTFEEVLKGLKNVRIHEENDFTSPLASGSRLVHYRGVYVVPCSTNTLSCIANGINKNLIHRVGEVALKERVPLVLLVREAPYNEIHLENMLKITRMGGVVVPASPAFYHKPQSIDDMINFVVGKLLDVLRIEHNLYKRWRG , field soluble on expression in E. coli: soluble

// field: soluble on expression in E. coli; key: MAHHHHHHMLVRSITKCVVPLIKATSYTSSYIVEHPPTPVRLTSMLPLHNKSMPTPLLDPERLQEISCGTGQPAQRGRRKPLVWKRRKPWFDHQWSLDLQRIKKGPETPHFPDGTPFTQIRSFQSFAGRSWKINAGRRRKIRLSLKRGRRKLL ; value = not soluble
